Experiment: compound binding in COS7 lysate, probe aLAP1, primary screen, cell lysate, small-molecule microarray (AID 1124);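 further: lysate comes from COS7 cells expressing LAP1 and is applied at 0.3 µg/mL; score merges spot fluorescence near 667 nm with signal-to-noise over triplicate slides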
Details: probe aLAP1, fluorescence, higher = more signal
Classification field: condition met = composite z-score at or over 0.6; condition not met = composite z-score under 0.6.

input: Check if composite z-score >= 0.6 (inclusive). Item: `CCCNC(=O)[C@@H]1c2ccccc2C(=O)N(Cc2ccccc2Cl)[C@H]1c1ccc(CO)cc1`
output: condition met

input: Check if composite z-score >= 0.6 (inclusive). Item: `O=C1[C@H]2[C@H]3[C@H](O)[C@H](O)CC(=NO[C@@H]4O[C@H](CO)[C@@H](O)[C@H](O)[C@H]4O)[C@H]3CC[C@H]2C(=O)N1C1CCCCC1`
output: condition not met

input: Check if composite z-score >= 0.6 (inclusive). Item: `CCN1C(=O)[C@H]2[C@H]3[C@H](O)[C@H](O)CC(=NO[C@@H]4O[C@H](CO)[C@@H](O)[C@H](O)[C@H]4O)[C@@H]3CC[C@H]2C1=O`
output: condition not met

input: Check if composite z-score >= 0.6 (inclusive). Item: `CCc1cccc(NC(=O)O[C@H]2[C@H](OC(=O)Nc3ccc4c(c3)OCO4)[C@@H](OC(=O)Nc3ccc4c(c3)OCO4)[C@@H](OC)O[C@@H]2CO)c1`
output: condition met

input: Check if composite z-score >= 0.6 (inclusive). Item: `CC(C)=CCCC(C)=CCON=C1[C@H]2CCn3c(=O)n(C)c(=O)n3[C@H]2[C@H](O)[C@@H]2O[C@H]12`
output: condition met

input: Check if composite z-score >= 0.6 (inclusive). Item: `CC[C@@H](c1ccccc1)n1c(=O)n2n(c1=O)[C@H]1[C@H](O)[C@@H]3O[C@@H]3C(=NOCC(C)C)[C@H]1CC2`
output: condition not met

input: Check if composite z-score >= 0.6 (inclusive). Item: `CC(C)CON=C1C[C@@H](O)[C@@H](O)[C@@H]2[C@@H]3C(=O)N(C[C@@H]4CCCO4)C(=O)[C@@H]3CC[C@H]12`
output: condition not met

input: Check if composite z-score >= 0.6 (inclusive). Item: `O=C1C[C@@H](O)[C@@H](O)[C@@H]2[C@@H]3C(=O)N(c4cccc(Oc5ccccc5)c4)C(=O)[C@@H]3CC[C@@H]12`
output: condition not met

input: Check if composite z-score >= 0.6 (inclusive). Item: CC(CCN1CCCCc2nc(C)c(C)cc21)=NOC(C)CN1CCCCc2nc(C)c(C)cc21 (configuration not stated)
output: condition met

input: Check if composite z-score >= 0.6 (inclusive). Item: `O=C1O[C@@H](c2ccccc2)[C@@H](c2ccccc2)N2[C@@H](c3ccc(OCCO)cc3)[C@]3(C(=O)Nc4ccc(C#CCCO)cc43)[C@@H](C(=O)N3CCCCCCC3)[C@H]12`
output: condition met

input: Check if composite z-score >= 0.6 (inclusive). Item: `COC(=O)C1=C(C)N(Cc2ccccc2)[C@]23O[C@](C(=O)OC)(C(=O)N2[C@@H]1c1ccccc1)[C@H]1CCOC(=O)[C@H]13`
output: condition not met

input: Check if composite z-score >= 0.6 (inclusive). Item: CCN(CC)c1ccc(N2CC=CC34O[C@@H]5/C=C\CCC(C)OC(=O)C5[C@H]3C(=O)N(CCCO)[C@@H]4C2=O)cc1 (some centres not stated)
output: condition not met
